- MEASURED ON: T1, human TGFβ3 (human, UniProt P10600 301-412)
- T1 sequence: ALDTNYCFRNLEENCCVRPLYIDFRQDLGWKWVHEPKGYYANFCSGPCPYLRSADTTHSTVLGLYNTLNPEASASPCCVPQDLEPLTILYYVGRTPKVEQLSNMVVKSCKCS
- EXPERIMENT SUMMARY: Biacore off-rate vs wt GC1008, 50 nM
PROPERTY LABEL: kd var/kd wt

Recorded kd var/kd wt for V55A (antibody, V domains shown, GC1008 IgG4 variant) VH: QVQLVQSGAEVKKPGSSVKVSCKASGYTFSSNVISWVRQAPGQGLEWMGGVIPIADIANYAQRFKGRVTITADESTSTTYMELSSLRSEDTAVYYCASTLGLVLDAMDYWGQGTLVTVSS VL: ETVLTQSPGTLSLSPGERATLSCRASQSLGSSYLAWYQQKPGQAPRLLIYGASSRAPGIPDRFSGSGSGTDFTLTISRLEPEDFAVYYCQQYADSPITFGQGTRLEIK , please?
2

Proceeding to the next binder to report its kd var/kd wt.
Recorded kd var/kd wt for S31H (antibody, V domains shown, GC1008 IgG4 variant) VH: QVQLVQSGAEVKKPGSSVKVSCKASGYTFSHNVISWVRQAPGQGLEWMGGVIPIVDIANYAQRFKGRVTITADESTSTTYMELSSLRSEDTAVYYCASTLGLVLDAMDYWGQGTLVTVSS VL: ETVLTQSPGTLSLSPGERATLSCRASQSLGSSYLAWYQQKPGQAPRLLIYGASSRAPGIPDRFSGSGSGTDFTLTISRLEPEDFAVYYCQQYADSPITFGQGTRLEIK , please?
1.4
